These entries and their values trace back to patent US11912701B2.

Target: MKK7 (Homo sapiens)
Sequence (O14733 1-419): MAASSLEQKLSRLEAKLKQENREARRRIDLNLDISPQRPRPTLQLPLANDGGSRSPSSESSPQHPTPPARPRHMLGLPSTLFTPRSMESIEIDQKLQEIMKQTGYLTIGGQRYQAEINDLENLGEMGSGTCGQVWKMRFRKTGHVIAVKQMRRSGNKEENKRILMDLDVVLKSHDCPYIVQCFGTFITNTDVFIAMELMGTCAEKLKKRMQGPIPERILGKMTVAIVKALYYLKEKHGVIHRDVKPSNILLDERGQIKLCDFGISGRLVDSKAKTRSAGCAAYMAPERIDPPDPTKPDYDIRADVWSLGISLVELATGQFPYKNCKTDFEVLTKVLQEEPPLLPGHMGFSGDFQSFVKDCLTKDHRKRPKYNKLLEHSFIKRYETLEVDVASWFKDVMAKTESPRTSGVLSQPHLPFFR
Experiment: KINOMEscan competition binding assay, MKK7
Parameters: M1/R419; host or cells: HEK-293
Settings: ratio PoC (off-target)/PoC (MKK4)
Readout Name: selectivity based on % Ctrl @100 nM vs. MKK7

>  <Compound>
CCCS(=O)(=O)Nc1ccc(F)c(C(=O)c2c[nH]c3ncc(-c4ccc(N)nc4)cc23)c1F

>  <Reported Measurement>
+++ (Ratio > 100)

$$$$
>  <Compound>
CCCS(=O)(=O)Nc1ccc(F)c(C(=O)c2c[nH]c3ncc(-c4ccc(C5CCC5)cc4)cc23)c1F

>  <Reported Measurement>
+++ (Ratio > 100)

$$$$
>  <Compound>
CCCS(=O)(=O)Nc1ccc(F)c(C(=O)c2c[nH]c3ncc(-c4cccc(O)c4)cc23)c1F

>  <Reported Measurement>
++ (100 ≥ ratio > 10)

$$$$
>  <Compound>
COc1ccc(-c2cnc3[nH]cc(C(=O)c4c(F)ccc(NS(=O)(=O)Cc5ccccc5)c4F)c3c2)cc1

>  <Reported Measurement>
++ (100 ≥ ratio > 10)

$$$$
>  <Compound>
CS(=O)(=O)Nc1c(F)ccc(C(=O)c2c[nH]c3ncc(-c4cccnc4)cc23)c1F

>  <Reported Measurement>
+++ (Ratio > 100)

$$$$
>  <Compound>
CCCS(=O)(=O)Nc1c(F)ccc(C(=O)c2c[nH]c3ncc(-c4ccc(N(C)C)nc4)cc23)c1F

>  <Reported Measurement>
+++ (Ratio > 100)

$$$$
>  <Compound>
CCCS(=O)(=O)Nc1ccc(F)c(C(=O)c2c[nH]c3ncc(-c4cccnc4)cc23)c1F

>  <Reported Measurement>
+++ (Ratio > 100)

$$$$

* * *

Target: MKK7 (Homo sapiens)
Test: KINOMEscan competition binding assay, MKK7
Design: M1/R419; host or cells: HEK-293
Details: ratio PoC (off-target)/PoC (MKK4)
Readout Name: selectivity based on % Ctrl @100 nM vs. MKK7

>  <Compound>
CN(C)c1ncc(-c2cnc3[nH]cc(C(=O)c4ccc(F)c(NS(=O)(=O)CCC(F)(F)F)c4F)c3c2)cn1

>  <Reported Measurement>
+++ (Ratio > 100)

$$$$
>  <Compound>
O=C(c1ccc(F)c(NS(=O)(=O)CCC(F)(F)F)c1F)c1c[nH]c2ncc(-c3ccc(C(F)(F)F)nc3)cc12

>  <Reported Measurement>
+++ (Ratio > 100)

$$$$
>  <Compound>
CCCS(=O)(=O)Nc1c(F)ccc(C(=O)c2c[nH]c3ncc(-c4ccc(C)nc4)cc23)c1F

>  <Reported Measurement>
+++ (Ratio > 100)

$$$$

* * *

Target: MKK7 (Homo sapiens, UniProt O14733)
Experiment: KINOMEscan competition binding assay, MKK7
Set-up: M1/R419; host or cells: HEK-293
Conditions: ratio PoC (off-target)/PoC (MKK4)
Experimental: The assay was performed by combining three components: DNA-tagged kinase; immobilized ligand; and a test compound. The ability of the test compound to compete with the immobilized ligand was measured via quantitative PCR of the DNA tag. […] For investigation of the affinity to MKK4, BRaf, MKK7 and JNK1, the kinases were produced in HEK-293 cells and subsequently tagged with DNA for qPCR detection. […] The kinase concentration in the eluates was measured by qPCR. […]
Readout Name: selectivity based on % Ctrl @100 nM vs. MKK7

>  <Molecule>
O=C(c1cccc(NS(=O)(=O)Cc2ccccc2)c1F)c1c[nH]c2ncc(-c3ccc(Cl)cc3)cc12 [Example 124]

>  <Reported Measurement>
++ (100 ≥ ratio > 10)

$$$$
>  <Molecule>
CCCS(=O)(=O)Nc1ccc(Br)c(C(=O)c2c[nH]c3ncc(-c4ccc(Cl)cc4)cc23)c1F [Example 60]

>  <Reported Measurement>
++ (100 ≥ ratio > 10)

$$$$
>  <Molecule>
O=C(c1c(F)ccc(NS(=O)(=O)CCC(F)(F)F)c1F)c1c[nH]c2ncc(-c3ccc(N4CCOCC4)nc3)cc12 [Example 79]

>  <Reported Measurement>
+++ (Ratio > 100)

$$$$
>  <Molecule>
CCCNS(=O)(=O)c1cccc(C(=O)c2c[nH]c3ncc(Br)cc23)c1 [Example 14]

>  <Reported Measurement>
◯ (3 ≥ Ratio)

$$$$
>  <Molecule>
CCCS(=O)(=O)Nc1ccc(F)c(C(=O)c2c[nH]c3ncc(-c4c[nH]c(=O)cn4)cc23)c1F [Example 88]

>  <Reported Measurement>
+++ (Ratio > 100)

$$$$
>  <Molecule>
CCCS(=O)(=O)Nc1ccc(F)c(C(=O)c2c[nH]c3ncc(-c4ccnnc4)cc23)c1F [Example 49]

>  <Reported Measurement>
+++ (Ratio > 100)

$$$$
>  <Molecule>
CCCS(=O)(=O)Nc1ccc(F)c(C(=O)c2c[nH]c3ncc(-c4ccc(S(C)(=O)=O)nc4)cc23)c1F [Example 77]

>  <Reported Measurement>
+++ (Ratio > 100)

$$$$
>  <Molecule>
CCCS(=O)(=O)Nc1ccc(F)c(C(=O)c2c[nH]c3ncc(-c4ccc(OC(F)(F)F)cc4)cc23)c1F [Example 111]

>  <Reported Measurement>
◯ (3 ≥ Ratio)

$$$$
>  <Molecule>
CCCS(=O)(=O)Nc1ccc(F)c(C(=O)c2c[nH]c3ncc(-c4ccc(OCC(O)CO)cc4)cc23)c1F (stereo not drawn) [Example 31]

>  <Reported Measurement>
+++ (Ratio > 100)

$$$$
>  <Molecule>
C#Cc1cnc2[nH]cc(C(=O)c3c(F)ccc(NS(=O)(=O)CCC)c3F)c2c1 [Example 18]

>  <Reported Measurement>
+ (10 ≥ ratio > 3)

$$$$
>  <Molecule>
CCCS(=O)(=O)Nc1ccc(F)c(C(=O)c2c[nH]c3ncc(-c4cccc(Cl)c4)cc23)c1F [Example 32]

>  <Reported Measurement>
+ (10 ≥ ratio > 3)

$$$$
>  <Molecule>
O=C(c1ccc(F)c(NS(=O)(=O)CCC(F)(F)F)c1F)c1c[nH]c2ncc(-c3cnc(NC4CC4)nc3)cc12 [Example 182]

>  <Reported Measurement>
+++ (Ratio > 100)

$$$$
>  <Molecule>
COc1ccc(-c2cnc3[nH]cc(C(=O)c4ccc(F)c(NS(=O)(=O)CCC(F)(F)F)c4F)c3c2)cn1 [Example 158]

>  <Reported Measurement>
+++ (Ratio > 100)

$$$$
>  <Molecule>
CCCS(=O)(=O)Nc1ccc(F)c(C(=O)c2c[nH]c3ncc(C4CCC4)cc23)c1F [Example 123]

>  <Reported Measurement>
+++ (Ratio > 100)

$$$$
>  <Molecule>
CCCS(=O)(=O)Nc1ccc(F)c(C(=O)c2c[nH]c3ncc(-c4ccc(OC)c(OC)c4)cc23)c1F [Example 105]

>  <Reported Measurement>
++ (100 ≥ ratio > 10)

$$$$

* * *

Target: MKK4 (Homo sapiens)
Construct: S84/D399; host or cells: HEK-293
Sequence (P45985 84-399): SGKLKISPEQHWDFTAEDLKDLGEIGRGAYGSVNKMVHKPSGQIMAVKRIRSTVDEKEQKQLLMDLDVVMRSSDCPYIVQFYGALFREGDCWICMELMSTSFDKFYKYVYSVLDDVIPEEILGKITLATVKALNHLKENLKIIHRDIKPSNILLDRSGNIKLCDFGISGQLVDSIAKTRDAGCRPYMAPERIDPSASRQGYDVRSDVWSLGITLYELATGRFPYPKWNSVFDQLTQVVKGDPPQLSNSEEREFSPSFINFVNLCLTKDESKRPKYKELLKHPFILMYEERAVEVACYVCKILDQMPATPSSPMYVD
Assay: KINOMEscan competition binding assay, MKK4
Conditions: residual percent of control binding (PoC) at 100 nM

>  <Molecule>
CCCS(=O)(=O)Nc1ccc(F)c(C(=O)c2c[nH]c3ncc(C4CCC4)cc23)c1F [Example 123]

>  <MKK4 [% Ctrl @ 100 nM>
+++ (PoC < 1)

$$$$
>  <Molecule>
CS(=O)(=O)Nc1c(F)ccc(C(=O)c2c[nH]c3ncc(-c4cccnc4)cc23)c1F [Example 228]

>  <MKK4 [% Ctrl @ 100 nM>
+++ (PoC < 1)

$$$$
>  <Molecule>
CCCS(=O)(=O)Nc1ccc(F)c(C(=O)c2c[nH]c3ncc(C4CCNCC4)cc23)c1F [Example 241]

>  <MKK4 [% Ctrl @ 100 nM>
+ (3 ≤ PoC < 30)

$$$$
>  <Molecule>
CCCS(=O)(=O)Nc1ccc(F)c(C(=O)c2c[nH]c3ncc(-c4ccc5ccoc5c4)cc23)c1F [Example 52]

>  <MKK4 [% Ctrl @ 100 nM>
+ (3 ≤ PoC < 30)

$$$$
>  <Molecule>
CCCS(=O)(=O)Nc1ccc(F)c(C(=O)c2c[nH]c3ncc(-c4ccc(N)nc4)cc23)c1F [Example 50]

>  <MKK4 [% Ctrl @ 100 nM>
+++ (PoC < 1)

$$$$
>  <Molecule>
CCCS(=O)(=O)Nc1ccc(F)c(C(=O)c2c[nH]c3ncc(-c4ccc(S(C)(=O)=O)nc4)cc23)c1F [Example 77]

>  <MKK4 [% Ctrl @ 100 nM>
+++ (PoC < 1)

$$$$
